Test: In vivo pharmacokinetic test in rat, single oral administration, plasma LC/MS/MS
Parameters: species or system SD rats
Details: female, Sprague-Dawley (SD), rat, plasma, po, 1.25 mg/kg, female rats, corn oil suspension, 4 mL/kg, read-out: MRT
Outcome Measure: MRT

INSERT INTO measurements (compound, outcome_measure, endpoint_value) VALUES
  ('COc1ccc(-n2nc(C(N)=O)c3c2C(=O)N(c2ccc(N4CCCCC4=O)cc2)CC3)cc1 [N-1, reference compound]', 'MRT', '7.37 h');

====

Test: Equilibrium solubility test (saturated solutions, external standard method)
Assay type: physicochemical
Conditions: hydrochloric acid (0.1N), 37 °C, pH 1, simulated gastric fluid, thermodynamic from solid, hydrochloric acid pH 1.0 (0.1N), 37° C., read-out: Solubility
Outcome Measure: solubility (µg/mL)

INSERT INTO assay_data (compound, outcome_measure, unit_symbol, endpoint_value) VALUES
  ('COc1ccc(-n2nc(C(N)=O)c3c2C(=O)N(c2ccc(N4CCCCC4=O)cc2)CC3)cc1 [N-1, reference compound]', 'solubility', 'µg/mL', 38.4);

====

Experiment: In vivo pharmacokinetic test in rat, single oral administration, plasma LC/MS/MS
Set-up: species or system SD rats
Conditions: male, Sprague-Dawley (SD), rat, plasma, po, 1.25 mg/kg, male rats, corn oil suspension, 4 mL/kg, read-out: Cmax
Outcome Measure: Cmax (ng/mL)

INSERT INTO measurements (compound, endpoint_value) VALUES
  ('COc1ccc(-n2nc(C(N)=O)c3c2C(=O)N(c2ccc(N4CCCCC4=O)cc2)CC3)cc1 [N-1, reference compound]', 4090);

====

Test: In vivo pharmacokinetic test in rat, single oral administration, plasma LC/MS/MS
Parameters: species or system SD rats
Conditions: male, Sprague-Dawley (SD), rat, plasma, po, 1.25 mg/kg, male rats, corn oil suspension, 4 mL/kg
Outcome Measure: AUC(0-t) (ng·h/mL)

INSERT INTO measurements (compound, unit_symbol, endpoint_value) VALUES
  ('COc1ccc(-n2nc(C(N)=O)c3c2C(=O)N(c2ccc(N4CCCCC4=O)cc2)CC3)cc1 [N-1, reference compound]', 'ng·h/mL', 19800);

====

Assay: Equilibrium solubility test (saturated solutions, external standard method)
Format: physicochemical
Conditions: pure water, 25 °C, water, thermodynamic from solid, pure water, 25° C., read-out: Solubility
Outcome Measure: solubility (µg/mL)

INSERT INTO measurements (compound, outcome_measure, endpoint_value) VALUES
  ('COc1ccc(-n2nc(C(N)=O)c3c2C(=O)N(c2ccc(N4CCCCC4=O)cc2)CC3)cc1 [N-1, reference compound]', 'solubility', 36.7);

====

Experiment: In vivo pharmacokinetic test in rat, single oral administration, plasma LC/MS/MS
Parameters: species or system SD rats
Details: female, Sprague-Dawley (SD), rat, plasma, po, 1.25 mg/kg, female rats, corn oil suspension, 4 mL/kg, read-out: Cmax
Outcome Measure: Cmax (ng/mL)

INSERT INTO results (molecule, unit_symbol, endpoint_value) VALUES
  ('COc1ccc(-n2nc(C(N)=O)c3c2C(=O)N(c2ccc(N4CCCCC4=O)cc2)CC3)cc1 [N-1, reference compound]', 'ng/mL', 2570);

====

Test: Equilibrium solubility test (saturated solutions, external standard method)
Type: physicochemical
Conditions: phosphate buffer, 25 °C, pH 6.8, aqueous buffer, thermodynamic from solid, phosphate buffer pH 6.8, 25° C., read-out: Solubility
Outcome Measure: solubility (µg/mL)

INSERT INTO assay_data (molecule_smiles, outcome_measure, endpoint_value) VALUES
  ('COc1ccc(-n2nc(C(N)=O)c3c2C(=O)N(c2ccc(N4CCCCC4=O)cc2)CC3)cc1', 'solubility', 37.2);

====

Assay: Equilibrium solubility test (saturated solutions, external standard method)
Assay type: physicochemical
Settings: phosphate buffer, 37 °C, pH 6.8, aqueous buffer, thermodynamic from solid, phosphate buffer pH 6.8, 37° C., read-out: Solubility
Outcome Measure: solubility (µg/mL)

INSERT INTO results (compound, unit_symbol, endpoint_value) VALUES
  ('COc1ccc(-n2nc(C(N)=O)c3c2C(=O)N(c2ccc(N4CCCCC4=O)cc2)CC3)cc1 [N-1, reference compound]', 'µg/mL', 29.4);

====

Assay: In vivo pharmacokinetic test in rat, single oral administration, plasma LC/MS/MS
Design: species or system SD rats
Conditions: male, Sprague-Dawley (SD), rat, plasma, po, 1.25 mg/kg, male rats, corn oil suspension, 4 mL/kg
Outcome Measure: half-life

INSERT INTO results (molecule, outcome_measure, endpoint_value) VALUES
  ('COc1ccc(-n2nc(C(N)=O)c3c2C(=O)N(c2ccc(N4CCCCC4=O)cc2)CC3)cc1 [N-1, reference compound]', 'half-life', '303 min');

====

Test: In vivo pharmacokinetic test in rat, single oral administration, plasma LC/MS/MS
Parameters: species or system SD rats
Details: male, Sprague-Dawley (SD), rat, plasma, po, 1.25 mg/kg, male rats, corn oil suspension, 4 mL/kg, read-out: MRT
Outcome Measure: MRT (h)

INSERT INTO measurements (compound, outcome_measure, endpoint_value) VALUES
  ('COc1ccc(-n2nc(C(N)=O)c3c2C(=O)N(c2ccc(N4CCCCC4=O)cc2)CC3)cc1 [N-1, reference compound]', 'MRT', 4.78);

====

Test: Equilibrium solubility test (saturated solutions, external standard method)
Assay type: physicochemical
Conditions: hydrochloric acid (0.1N), 25 °C, pH 1, simulated gastric fluid, thermodynamic from solid, hydrochloric acid pH 1.0 (0.1N), 25° C., read-out: Solubility
Outcome Measure: solubility

INSERT INTO results (molecule, outcome_measure, endpoint_value) VALUES
  ('COc1ccc(-n2nc(C(N)=O)c3c2C(=O)N(c2ccc(N4CCCCC4=O)cc2)CC3)cc1 [N-1, reference compound]', 'solubility', '31.4 µg/mL');
